// reported LC50 per item
- System: KM12
- procedureDetails: Growth inhibition of human KM12 cells incubated for 48 hrs by sulforhodamine B assay
- Type: functional

Examples with answers:
>>> df
                                 testsmiles  testtarget  endpointlabel  measuredresult
0  CCc1ccccc1NC(=O)c1sc2nc3c(cc2c1N)C(=O)CCC3        KM12           LC50        > 100 µM
1  Cc1ccc(NC(=O)c2sc3nc4c(cc3c2N)C(=O)CCC4)cc1C        KM12           LC50        > 100 µM
2  Cc1cccc(NC(=O)c2sc3nc4c(cc3c2N)C(=O)CCC4)c1        KM12           LC50        > 100 µM
3  COc1cccc(NC(=O)c2sc3nc4c(cc3c2N)CN(Cc2ccccc2)CC4)c1        KM12           LC50        > 100 µM

Let's switch to this compound now.
Value lookup for LC50; key = CCc1cccc(C)c1NC(=O)c1sc2nc3c(cc2c1N)C(=O)CCC3
> 100 µM

Source listed as ChEMBL document CHEMBL4715736.
